Data origin, for the record: PubChem BioAssay (NCI)

Experiment: NCI Yeast Anticancer Drug Screen. Data for the bub3 strain (AID 167)
Conditions: S. cerevisiae bub3 mutant strain, at 50.0 µM, active compounds read high
The panel holds about 79,000 compounds, 15% with a hit somewhere; the sample as a whole holds those more often. Calls of active or inactive are those of the source. Cut-off read from the data, not from the text of the source: active = growth inhibition above about 70%; inactive = the rest.
quantity name: growth inhibition

molecule	val
COc1ccc(C(c2c(O)c3ccccc3oc2=O)N2CCOCC2)c(OC)c1 (stereo not drawn)	69.2% (inactive)
CCCCCCCCCc1c(O)c(O)c(CCCCCCCCC)c(CCCCCCCCC)c1CCCCCCCCC	55.4% (inactive)
O=C(CSc1nnc(-c2ccc(N=Cc3ccc(Cl)cc3)cc2)o1)Nc1ccc(Cl)cc1Cl	98.5% (active)
Clc1c(Cl)c(Cl)c(SC2C3CC4C(C3)C42)c(Cl)c1Cl (stereo not drawn)	98% (active)
Cc1cccc2c1nc1ccccc1[n+]2C	98.2% (active)
O=C(Cl)C(c1ccccc1)(c1ccccc1)c1ccccc1	94.7% (active)
CC1(C)C2CCC1(CS(=O)O)C(=O)C2.[Ag] (stereo not drawn)	99.5% (active)
c1ccc(-n2c3ccccc3c3ccccc32)cc1	88.2% (active)
CC(C)(C)C(=O)CC(=O)C(F)(F)C(F)(F)C(F)(F)F.CC(C)(C)C(=O)CC(=O)C(F)(F)C(F)(F)C(F)(F)F.CC(C)(C)C(=O)CC(=O)C(F)(F)C(F)(F)C(F)(F)F.[Gd]	89.2% (active)
COC(=O)C(O)(/C(=N\O)c1ccccc1)c1ccccc1 (stereo not drawn)	29.1% (inactive)
O=C(O)CCC(O)=C1S(=O)(=O)OCCOS1(=O)=O	15.7% (inactive)
CCC(C)c1ccc(O)c(C(C)c2ccccc2)c1 (stereo not drawn)	91% (active)
CC(C)(C)/C=N/NS(=O)(=O)c1ccccc1	-5.2% (inactive)
c1ccc2sc(SSN3CCOCC3)nc2c1	86.4% (active)
CC1(C(=O)O)CCC2(C)CCC3(C)C(=CC(=O)C4C5(C)CCC(O)C(C)(C)C5CCC43C)C2C1 (stereo not drawn)	60.5% (inactive)
CCCCCCCSCc1nc2ccccc2c(C)[n+]1[O-]	98% (active)
CC(=O)NNc1nc(C)c(C(=O)NNC(=O)C(=O)Nc2c(C)cccc2C(C)C)s1	37.5% (inactive)
NC(Cc1ccc(O)cc1O)C(=O)O (stereo not drawn)	3.55% (inactive)
Cc1[nH]c(=O)[nH]c(=O)c1CN(C)Cc1cc(Cl)cc(Cl)c1O	30.1% (inactive)
CCc1nc2c(O)ccc(O)c2nc1C	84.2% (active)
O=Nc1ccc(O)c(/C=N/O)c1	90% (active)
Cc1ccc(C(=O)OCCN2CCOCC2)c([N+](=O)[O-])c1OCc1ccccc1	68.5% (inactive)
C=CCC1(OC(C)=O)CC2C(=O)C(=O)C(C1)N2OC(=O)c1ccccc1 (stereo not drawn)	98% (active)
Cc1ccc(/C=C/C(=O)/C=C/c2ccc(C)o2)o1	75% (active)
COc1ccccc1NC(=S)N/N=C(/C)c1ccccn1	13.5% (inactive)
Cc1ccc(-c2c(C#N)c(S)n(NS(=O)(=O)c3ccccc3)c(=O)c2C#N)cc1	71.2% (active)
O=C1OC2(c3ccc(O)cc3Oc3cc(O)ccc32)c2c1c(-c1ccccc1)c(-c1ccccc1)c(-c1ccccc1)c2-c1ccccc1	50.9% (inactive)
O=C1C=CC(=O)N1c1ccc(-c2ccc(N3C(=O)C=CC3=O)cc2)cc1	46% (inactive)
COc1ccccc1NC(=O)O/N=C(/Cl)C(C)C	80.5% (active)
COC1/C=C\OC2(C)Oc3c(C)c(O)c4c(O)c(c5[nH]c(-c6ccccc6)nc5c4c3C2=O)NC(=O)/C(C)=C\C=C\C(C)C(O)C(C)C(O)C(C)C(OC(C)=O)C1C (stereo not drawn)	88.6% (active)
CC1(c2ccccc2)NC(=O)N(CC(=O)N(c2ccccc2)c2ccccc2)C1=O (stereo not drawn)	33.7% (inactive)
O=[N+]([O-])c1ccc2c(Nc3ccccc3-c3ccccc3Nc3c4ccccc4nc4cc([N+](=O)[O-])ccc34)c3ccccc3nc2c1	87.4% (active)
O=C(/C(Cl)=N/O)c1ccccc1	99% (active)
C/C(=N\NC(=S)Nc1ccc(Cl)cc1)c1nc2ncccc2[nH]1	90.1% (active)
CC1([N+](=O)[O-])C(=O)C2(N3CCCCC3)CCCC2C1c1ccccc1 (stereo not drawn)	12% (inactive)
C/C=C/CSc1cc(NC(=S)c2ccsc2C)ccc1Cl	88.6% (active)
CC1C[N+](C)(C)C(C)C(=O)C1(c1ccccc1)c1ccccc1 (stereo not drawn)	28.2% (inactive)
CCCCC(=O)OC1=C(Br)C(=O)c2ccccc2C1=O	13.8% (inactive)
CC(C)/C=C1\CCOC1=O	-0.55% (inactive)
N#C/C(=C\c1cc(Cl)cc(Cl)c1O)C(/C(C#N)=C/c1cc(Cl)cc(Cl)c1O)c1ccc2c(c1)OCO2 (stereo not drawn)	92.1% (active)
N#CC1Sc2ccccc2N1C(=O)c1ccccc1 (stereo not drawn)	84.2% (active)
CCc1nc(N)nc(N)c1-c1ccc(N(C)Cc2ccccc2)c([N+](=O)[O-])c1	10.1% (inactive)
CCCC/C(=N/Nc1ccc([N+](=O)[O-])cc1)C(=O)O	82% (active)

###

Reported growth inhibition values for the following molecules.
Assay: NCI Yeast Anticancer Drug Screen. Data for the mec2-1 strain (AID 157)
Settings: S. cerevisiae mec2-1 strain, at 50.0 µM, active compounds read high
The panel holds about 79,000 compounds, 15% with a hit somewhere; the sample as a whole holds those more often.
quantity name: growth inhibition (%)

> print(dat)
                                    molecule    val
 1  CC(C)(C)c1cc(C(P(=O)(c2ccccc2)c2ccccc2)P(=O)(c2ccccc2)c2ccccc2)cc(C(C)(C)C)c1O   93.7
 2  COC1CC(OC(=O)c2ccccc2)C2OC(c3ccccc3)OCC2O1 (stereo not drawn)   8.35
 3  CCc1cccc(CC)c1NC1=C(Cl)C(=O)c2ccccc2C1=O      5
 4                     COC(=O)Cc1nc2ccccc2s1   99.5
 5            ClC(Cl)(Cl)/C=C/c1cnc2ccccc2n1   5.95
 6                 COc1ccccc1NC(=O)c1ccccc1F   10.7
 7  CN(C)C1C[C@@H](O[Si](C)(C)C(C)(C)C)C=C1S(=O)(=O)c1ccccc1 (stereo partly drawn)   47.8
 8  O=C1CC(c2ccccc2)C(c2ccccc2)CO1 (stereo not drawn)   92.7
 9  O=C(CC1C(=O)c2ccccc2C1=C1C(=O)c2ccccc2C1=O)c1ccccc1 (stereo not drawn)   89.8
10  CC(CN(C)C)C(/C=C/c1ccc(Cl)cc1)=N\NC(=O)c1ccccc1 (stereo not drawn)  -4.45
11             O=[N+]([O-])c1cc(Br)cc(Br)c1O   49.6
12     CCCCCCCN(CCCCCCC)CC(=O)NC(=O)c1ccccc1   97.2
13  CN(C)c1ccc(-c2c(C#N)c(-c3ccccc3)n(NS(=O)(=O)c3ccccc3)c(=O)c2C#N)cc1   75.5
14  CC(=O)OC12CCC3C4CC=C5CC(O)CCC5(C)C4C(=O)C3C1(C)N1CC(C)CC(O)C1C2C (stereo not drawn)   59.5
15                C[n+]1cccc2c1-c1ccccc1C2=O    1.6
16      O=P(Nc1ccccc1)(OCc1ccccc1)OCc1ccccc1   94.7
17    Cc1cc2nc3[nH]c4c(Cl)cc(Cl)cc4c3nc2cc1C  -28.6
18  O=C(O)c1c([N+](=O)[O-])cc(C(F)(F)F)cc1[N+](=O)[O-]    4.3
19      CCOc1ccccc1NC(=O)/C(Cl)=C(\Cl)C(=O)O   98.3
20  O=C(OCC1CCCO1)N(c1ccccc1)c1ccccc1 (stereo not drawn)   24.3
21  O=[N+]([O-])c1ccc(C2=C[P+](c3ccccc3)(c3ccccc3)C=C(c3ccccc3)O2)cc1   90.4
22           CC(C)(C)/C=N/NS(=O)(=O)c1ccccc1  -7.35
23  CCC1([N+](=O)[O-])COC(c2ccc3c(c2)OCO3)OC1 (stereo not drawn)  -3.15

###

Test: NCI Yeast Anticancer Drug Screen. Data for the rad50 strain (AID 155);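 note: 0% = growth of vehicle-only cultures of the same strain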
Conditions: S. cerevisiae rad50 strain growth inhibition; at 50.0 µM; active compounds read high
The panel holds about 79,000 compounds, 15% with a hit somewhere; the sample as a whole holds those more often.
Label 1 (yes) when growth inhibition is at or above 50%; anything below gets 0 (no).

> print(dat)
                                    compound      cat
 1  COc1ccc2c(c1)C(Br)CCC(Br)C2=O (centres undefined)   0 (no)
 2  CCOC(=O)C(C(=O)O)(C(c1ccccc1)c1ccccc1)C(c1ccccc1)c1ccccc1  1 (yes)
 3            ClC(Cl)(Cl)/C=C/c1cnc2ccccc2n1   0 (no)
 4  COc1ccc2c(c1)CN1C(CCC3c4ccccc4NC31)C2 (centres undefined)  1 (yes)
 5  O=C1CCC(C(c2ccccc2)(c2ccccc2)c2ccccc2)CC1=O (centres undefined)   0 (no)
 6            S=C(NCCc1ccccn1)N/N=C/c1ccccn1  1 (yes)
 7  COc1ccc(CN2CCCN(Cc3ccc(OC)cc3OC)C2c2cc(Br)ccc2O)c(OC)c1  1 (yes)
 8     COc1ccc(-n2c3c(c4c(N)ncnc42)CCCC3)cc1   0 (no)
 9          C=CCNc1nc2c(s1)C(=O)c1ccccc1C2=O  1 (yes)
10  CSC(=S)n1nc(-c2ccccc2)c(N=Nc2ccc(Br)cc2)c1-c1ccccc1   0 (no)
11                 Nc1ccc2ccc3cccc4ccc1c2c34  1 (yes)
12  OC(CBr)c1cc(-c2ccccc2)nc2ccccc12 (centres undefined)   0 (no)
13  CCCCCCCCc1cc[n+](C2=C([O-])c3ccccc3C(=O)C2=O)cc1  1 (yes)
14             CCCCCCCCCCCCNCc1ccc(O)c(OC)c1  1 (yes)
15  CCC(C1SC(=S)NC1=O)C1SC(=S)NC1=O (centres undefined)  1 (yes)
16         NC(=S)N/N=C/c1ccc([N+](=O)[O-])o1  1 (yes)
17  COc1ccc2c(c1)[n+]([O-])c(-c1ccc(C)cc1)c(N)[n+]2[O-]  1 (yes)
18   CN1C=COC1N=C1CCCCC1 (centres undefined)   0 (no)
19  CCOc1ccc2c(c1)[n+]([O-])c(S(=O)(=O)c1ccc(C)cc1)c(N)[n+]2[O-]  1 (yes)
20  O=C1CSC(c2ccc(Cl)cc2)N1c1ccc(-c2ccc(-n3c(-c4ccccc4)nc4ccccc4c3=O)cc2)cc1 (centres undefined)  1 (yes)
21  CCOC1(OCC)C(C)C(c2ccccc2)C(c2ccccc2)C1C (centres undefined)  1 (yes)
22  Cc1cc2c(cc1O)CC[C@@H]1[C@@H]2CC[C@]2(C)[C@@H](O)CC[C@@H]12   0 (no)
23  CN(C)CCOC1OCN(C)CC1(C)C (centres undefined)   0 (no)
24  CC(C)C(=O)N1Cc2cc(Cl)cc(Cl)c2OC(=O)c2ccccc21  1 (yes)
